system: Immunoglobulin E (IgE) (Homo sapiens), P01854-1; experiment: filter; conditions: DNA with 2'-OMe C22; 3' idT [2'-OMe C22; 3' inverted dT38]; dPBS Ca/Mg + BSA
Sequence (P01854 other isoform, or with tags, fused parts or gaps): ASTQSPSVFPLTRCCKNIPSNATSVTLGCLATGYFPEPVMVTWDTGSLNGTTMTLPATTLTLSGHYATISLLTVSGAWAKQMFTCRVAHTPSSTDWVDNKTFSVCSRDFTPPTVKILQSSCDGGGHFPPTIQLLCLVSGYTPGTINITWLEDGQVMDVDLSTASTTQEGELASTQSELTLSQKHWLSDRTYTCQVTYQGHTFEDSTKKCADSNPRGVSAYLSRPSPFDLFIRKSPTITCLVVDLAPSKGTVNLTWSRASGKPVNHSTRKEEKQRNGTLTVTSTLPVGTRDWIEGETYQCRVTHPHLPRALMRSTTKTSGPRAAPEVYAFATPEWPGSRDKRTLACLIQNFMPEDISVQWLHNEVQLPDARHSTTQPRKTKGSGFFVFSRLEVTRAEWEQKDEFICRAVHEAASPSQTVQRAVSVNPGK
pKd: −log10 of the molar value.

# Seq, pKd
measured = [
    ("GGGGCTACTTTATCCGTTCCTCCTAGTGGGTAGCCCCT [ARC1286]", 8.15),
]

* * *

Target: Immunoglobulin E (IgE) (Macaca fascicularis) (UniProt A0A7N9DC98)
Sequence: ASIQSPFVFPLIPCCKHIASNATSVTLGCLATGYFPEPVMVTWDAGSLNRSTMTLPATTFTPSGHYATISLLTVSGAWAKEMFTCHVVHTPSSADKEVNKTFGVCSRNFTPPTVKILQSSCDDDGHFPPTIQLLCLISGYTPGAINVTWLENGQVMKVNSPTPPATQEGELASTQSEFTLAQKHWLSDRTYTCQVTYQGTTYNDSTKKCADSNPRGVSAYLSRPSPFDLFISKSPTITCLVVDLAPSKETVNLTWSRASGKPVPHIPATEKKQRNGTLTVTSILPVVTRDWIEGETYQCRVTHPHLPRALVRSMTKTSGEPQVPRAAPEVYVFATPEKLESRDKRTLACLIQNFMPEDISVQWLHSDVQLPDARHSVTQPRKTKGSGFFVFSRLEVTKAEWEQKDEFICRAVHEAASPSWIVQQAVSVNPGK
Test: inhibition
Conditions: mAmGmCmCmUdGmGdG-s-dGmAmCmCmCmAmU-s-dI-s-mGdI-s-dGdI-s-dGmCmU-3T [2'-OMe 1-5,7,10-15,17,22,23; dI16,dI18,dI20 (inosine, parent base G); phosphorothioate 8/9,15/16,16/17,18/19,20/21 (N linkage letters left out); 3' inverted dT24]; ELISA, monkey IgE:FceR1a-Fc; human IC50 5 nM in same assay
pIC50: −log10 of the molar value.

# Seq, pIC50
measured = [
    ("AGCCUGGGGACCCAUGGGGGGCU [ARC1666]", 8.10),
]
